System: EPHB6
Conditions: concentration: 1 μM, replicates: in singlicate; n = 1;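 also: KINOMEscan kinase panel screen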
Quick rule for you: %Inh under 50% gets t, anything else gets f.

{"compound": "O=C(Nc1n[nH]c2nc(-c3ccccc3O)ccc12)C1CC1 [SB-711880]", "label": "f"}

Bench note: check whether Cc1cc(-c2ccnc(Nc3cccc(C#N)c3)n2)cc(C)c1O [GSK1440913] shows %Inh below 50%
f

Bench note: check whether CN(c1ccc2c(c1)nc(NCc1ccccc1)n2C)c1ccnc(Nc2ccc(CS(C)(=O)=O)cc2)n1.Cl [GW811603] shows %Inh below 50%
f

Bench note: check whether Cc1ccccc1CC(=O)N1CCc2cc(-c3cn(C)c4ncnc(N)c34)ccc21 [GSK2603346] shows %Inh below 50%
f

Bench note: check whether Cc1ccc(NC(=O)c2ccc(Cl)c(Cl)c2)cc1-c1ccc(C(=O)Nc2ccncc2)cc1 [GSK1398460] shows %Inh below 50%
t

Bench note: check whether CNc1nccc(-c2ccc3c(N)n[nH]c3c2)n1 [GSK2206003] shows %Inh below 50%
t

Bench note: check whether COc1cccc(CC(=O)N2CCc3cc(-c4cn(C)c5ncnc(N)c45)ccc32)c1 [GSK2608899] shows %Inh below 50%
f

Bench note: check whether COC(=O)Nc1nc2ccc(Oc3ccc(CC(=O)Nc4cc(C(F)(F)F)ccc4F)cc3)cc2[nH]1 [GW680903] shows %Inh below 50%
t

Bench note: check whether CC(C)c1nc(-c2ccc(F)c(NS(=O)(=O)c3c(F)cccc3F)c2)c(-c2ccnc(Nc3ccc(N4CCOCC4)nc3)n2)s1 [GSK1804250] shows %Inh below 50%
f

Bench note: check whether COC(=O)Nc1nc2cc(Oc3ccc(NC(=O)Nc4cccc(SC)c4)cc3)ccc2[nH]1.Cl [GW697999] shows %Inh below 50%
f

Bench note: check whether CCn1cnc2c(NCc3ccccc3)ncnc21 [SKF-96418] shows %Inh below 50%
t

###

Tested on: DLK
Construct: gene MAP3K12
Settings: concentration: 1 μM, replicates: in singlicate; n = 1
Quick rule for you: %Inh under 30% gets 1, anything else gets 0.

Check out these entries, answers already filled in.
{"molecule": "CC(C)NCC(Cc1ccccc1)NC(=O)c1cc(Br)c(-c2ccnc3[nH]ccc23)s1.Cl.Cl (stereo not shown)", "label": 1}
{"molecule": "CSc1ccc(NC2=C(c3ccc(Cl)cc3)C(=O)NC2=O)cc1", "label": 1}
{"molecule": "COc1ccc(C)c(Nc2ccnc(Nc3ccc(-c4cnc[nH]4)cc3)n2)c1.Cl", "label": 1}

Bench note: check whether `O=C(O)C(F)(F)F.O=c1[nH]ccc2nc(N[C@@H]3CCNC3)nc(Nc3cc(Cl)cc(Cl)c3)c12` shows %Inh below 30%
0

Bench note: check whether `Cc1ccc(C)c(NC(=O)Nc2ccc(C)c(-c3ccc(C(=O)Nc4ccncc4)cc3)c2)c1` shows %Inh below 30%
1

Bench note: check whether `Nc1ncnc2scc(-c3ccc(NC(=O)Cc4cc(F)ccc4F)cc3)c12.O=C(O)C(F)(F)F` shows %Inh below 30%
1

Bench note: check whether `Cc1ccc(Nc2ccnc(Nc3ccc(C)c(F)c3)n2)cc1O.Cl` shows %Inh below 30%
0

Bench note: check whether `CN(C)c1ncnc2nc[nH]c12` shows %Inh below 30%
1

###

Test system: AMPK-alpha1
Construct: gene PRKAA1
Details: concentration: 1 μM, replicates: in singlicate; n = 1
Quick rule for you: %Inh under 3% gets True, anything else gets False.

Check out these entries, answers already filled in.
{"compound": "Cn1cc(-c2cnc(N)c3c(-c4ccc5c(c4)CCN5C(=O)Cc4ccccc4)csc23)cn1 [GSK2593074]", "assaySystem": "AMPK-alpha1", "label": "False"}
{"compound": "COC(=O)Nc1nc2ccc(Oc3ccc(NC(=O)Nc4cc(C(F)(F)F)ccc4F)cc3)cc2[nH]1.Cl [GW654607]", "assaySystem": "AMPK-alpha1", "label": "False"}
{"compound": "Cc1cccc(Nc2nc(N[C@H]3CCCC[C@H]3N)ncc2C(N)=O)c1.Cl [GSK986310]", "assaySystem": "AMPK-alpha1", "label": "False"}
{"compound": "COC(=O)Nc1nc2ccc(Oc3ccc(CC(=O)Nc4cc(C(F)(F)F)ccc4F)cc3)cc2[nH]1 [GW680903]", "assaySystem": "AMPK-alpha1", "label": "True"}
{"compound": "COc1cccc(C2=C(Nc3cccc(O)c3)C(=O)NC2=O)c1 [SB-390771]", "assaySystem": "AMPK-alpha1", "label": "False"}

Bench note: check whether COc1cc(Nc2ccnc3cc(-c4ccncc4)ccc23)cc(OC)c1OC.Cl [GW494610] shows %Inh below 3%
False

Bench note: check whether COc1cccc(CC(=O)N2CCc3cc(-c4cn(C)c5ncnc(N)c45)ccc32)c1 [GSK2608899] shows %Inh below 3%
False

Bench note: check whether Cn1cc(-c2ccc3c(c2)CCN3C(=O)Cc2cc(F)cc(F)c2F)c2c(N)ncnc21 [GSK2634140] shows %Inh below 3%
False

###

System: PDPK1
Conditions: concentration: 1 μM, replicates: in singlicate; n = 1
Please enter True where %Inh is greater than or equal to 20%, and False where it is lower.

Check out these entries, answers already filled in.
{"compound": "CN(c1ccc2c(c1)nc(NCc1ccccc1)n2C)c1ccnc(Nc2ccc(CS(C)(=O)=O)cc2)n1.Cl", "label": "False"}
{"compound": "COc1cccc(C2=C(Nc3cccc(O)c3)C(=O)NC2=O)c1", "label": "False"}
{"compound": "COc1cccc(NC(=O)NCCNc2ccnc(Nc3ccc(F)cc3)n2)c1", "label": "False"}
{"compound": "CN(C)c1ncnc2nc[nH]c12", "label": "False"}
{"compound": "Fc1cc(Cl)ccc1Nc1ccnc2cc(-c3ccc(CN4CCOCC4)o3)ccc12", "label": "False"}
{"compound": "Cc1ccc(-c2ccc3occ(-c4ccc(S(C)=O)cc4)c3c2)nn1 (centres unmarked)", "label": "False"}
{"compound": "Fc1cc(Cl)ccc1Nc1ccnc2cc(-c3ccc(CN4CCSCC4)o3)ccc12", "label": "False"}
{"compound": "COc1cc(Nc2nccc(N3CCC(NS(=O)(=O)c4ccc(NC(C)=O)cc4)CC3)n2)cc(OC)c1OC", "label": "True"}
{"compound": "COC(=O)Nc1nc2ccc(Oc3ccc(NC(=O)Nc4cc(C(F)(F)F)ccc4F)cc3)cc2[nH]1.Cl", "label": "False"}
{"compound": "CN(c1ccc(NC(=O)N2CCN(CCCN3CCOCC3)CC2)cc1)c1ccnc(Nc2ccc(CS(C)(=O)=O)cc2)n1.Cl", "label": "False"}

Quick check: does `CN(C)CCOc1ccc(-c2cc(-c3ccc(Cl)c(O)c3)c(-c3ccncc3)[nH]2)cc1.Cl.Cl` have %Inh greater than or equal to 20%?
False

Quick check: does Cl.Cl.NCC(NC(=O)c1cc(-c2cccnc2)c(-c2ccnc3[nH]ccc23)s1)c1ccccc1 (centres unmarked) have %Inh greater than or equal to 20%?
True

###

System: RIPK4
Conditions: concentration: 1 μM, replicates: in singlicate; n = 1
readoutName: %Inh (%)
Please respond with the number in % and leave the unit unwritten.

Field: example entries. Status: answers known.
{"substanceSmiles": "Cn1cc(-c2cnc(N)c3c(-c4ccc5c(c4)CCN5C(=O)Cc4ccccc4)csc23)cn1", "assaySystem": "RIPK4", "resultUnit": "%", "resultValue": 100}
{"substanceSmiles": "COc1cccc(C2=C(Nc3cccc(O)c3)C(=O)NC2=O)c1", "assaySystem": "RIPK4", "resultUnit": "%", "resultValue": 22}
{"substanceSmiles": "Cc1cc(-c2c(-c3ccc(F)cc3)ncn2CCCN2CCOCC2)nc(N)n1", "assaySystem": "RIPK4", "resultUnit": "%", "resultValue": 14}
{"substanceSmiles": "CN(C)CCOc1ccc(-c2cc(-c3ccc(Cl)c(O)c3)c(-c3ccncc3)[nH]2)cc1.Cl.Cl", "assaySystem": "RIPK4", "resultUnit": "%", "resultValue": 7}

Give recorded %Inh. `Cc1ccc(Nc2ccnc(Nc3ccc(C)c(F)c3)n2)cc1O.Cl`
13

###

System: MAP3K4
Settings: concentration: 1 μM, replicates: in singlicate; n = 1
readoutName: %Inh (%)
Please respond with the number in % and leave the unit unwritten.

Field: example entries. Status: answers known.
{"compound": "Cc1cc(-c2c(-c3ccc(F)cc3)ncn2CCCN2CCOCC2)nc(N)n1 [SB-222517]", "assaySystem": "MAP3K4", "readoutName": "%Inh", "resultUnit": "%", "resultValue": 15}
{"compound": "CN(c1ccc2c(c1)nc(NCc1ccccc1)n2C)c1ccnc(Nc2ccc(CS(C)(=O)=O)cc2)n1.Cl [GW811603]", "assaySystem": "MAP3K4", "readoutName": "%Inh", "resultUnit": "%", "resultValue": 0}
{"compound": "Cc1ccc(NC(=O)c2ccc(Cl)c(Cl)c2)cc1-c1ccc(C(=O)Nc2ccncc2)cc1 [GSK1398460]", "assaySystem": "MAP3K4", "readoutName": "%Inh", "resultUnit": "%", "resultValue": 45}
{"compound": "CCNC(=O)/C=C/c1n[nH]c2cc(Sc3ccccc3C(=O)NC)ccc12", "assaySystem": "MAP3K4", "readoutName": "%Inh", "resultUnit": "%", "resultValue": 3}

Give recorded %Inh. CN(C)CCOc1ccc(-c2cc(-c3ccc(Cl)c(O)c3)c(-c3ccncc3)[nH]2)cc1.Cl.Cl [SB-684387]
17
